Values from patent US7923465B2

EXPERIMENTAL_TARGET: hCB2 (Homo sapiens, UniProt P34972)
Sequence (P34972 whole entry): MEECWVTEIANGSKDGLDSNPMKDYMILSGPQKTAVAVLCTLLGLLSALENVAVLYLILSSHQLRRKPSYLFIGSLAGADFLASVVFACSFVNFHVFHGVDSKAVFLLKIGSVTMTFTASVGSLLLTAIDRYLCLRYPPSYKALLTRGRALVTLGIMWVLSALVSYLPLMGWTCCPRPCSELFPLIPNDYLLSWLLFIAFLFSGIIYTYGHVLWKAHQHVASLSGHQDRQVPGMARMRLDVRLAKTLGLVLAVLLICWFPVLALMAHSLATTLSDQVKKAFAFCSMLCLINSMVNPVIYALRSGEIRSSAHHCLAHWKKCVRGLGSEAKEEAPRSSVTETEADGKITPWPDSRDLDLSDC
ASSAY: In vitro binding assay using hCB2-CHO membranes, [3H]-CP-55,940 displacement (Protocol IV)
Parameters: expressed in transfected cells; host or cells: CHO (hCB2-CHO, generated in-house)
EXPERIMENTAL_SETUP: 1 h, read-out: % Displacement Protocol IV
ASSAY_METRIC: inhibition at 0.3 µM
Give me the value, and tack the unit on after it.

Worked cases, answers included:
- MOLECULE: "CC12CCC(C1)C(C)(C)C2NC(=O)c1nn(-c2ccc(F)cc2)c2c1C1CC3CC(C1)CC2C3 (centres unmarked)"
  EXPERIMENTAL_TARGET: "hCB2 (Homo sapiens, UniProt P34972)"
  inhibition at 0.3 µM: "97.7%"
- MOLECULE: "O=C(NC1C2CC3CC(C2)CC1C3)c1nn(-c2ccc(F)cc2)c2c1C1CCC2C1 (centres unmarked)"
  EXPERIMENTAL_TARGET: "hCB2 (Homo sapiens, UniProt P34972)"
  inhibition at 0.3 µM: "97.1%"
- MOLECULE: "CCC(CC)(NC(=O)c1nn(-c2ccc(F)cc2F)c2c1C1CCC2C1)c1ccccc1 (centres unmarked)"
  EXPERIMENTAL_TARGET: "hCB2 (Homo sapiens, UniProt P34972)"
  inhibition at 0.3 µM: "77.6%"

Moving on to the next molecule.
The measured inhibition at 0.3 µM associated with CCCCCn1nc2c(c1C(=O)NC(C)(C)c1ccccc1)C1CC3CC(CC2C3)C1 [Example 190a] reads 0%
